# Tested on: LASCPC-01
# protocol details: cell viability relative to DMSO control (fraction); higher = less growth inhibition (more viable cells)
# setup conditions: 2 µM; 72 h
Structures can show the parent of a compound that is named as a salt.
measurement kind: cell viability
// return just the number, without any unit appended

CN(C)CCCN1c2ccccc2CCc2ccc(Cl)cc21 [Clomipramine hydrochloride]: 0.987

State the recorded cell viability for this entry: "Cn1c(=O)cnn(CCCCN2CCN(c3ncccn3)CC2)c1=O"
0.947

State the recorded cell viability for this entry: CC1(C)C(=O)N(CCN2CCC(C(=O)c3ccc(F)cc3)CC2)c2ccccc21 [LY-310,762 hydrochloride]
0.89

State the recorded cell viability for this entry: N#Cc1ccc2[nH]cc(CCCCN3CCN(c4ccc5oc(C(N)=O)cc5c4)CC3)c2c1 [Vilazodone HCl]
0.916

State the recorded cell viability for this entry: COCCCN1CCC(NC(=O)c2cc(Cl)c(N)c3c2OCC3)CC1 [Prucalopride Succinat]
1.1

State the recorded cell viability for this entry: "Cc1cc2c(cc1Cl)N(C(=O)Nc1ccc(Oc3cccnc3C)nc1)CC2"
0.0538

State the recorded cell viability for this entry: CN(C)CCCN1c2ccccc2CCc2ccc(Cl)cc21 [Clomipramine HCl]
0.826

State the recorded cell viability for this entry: CN(C)CC(c1ccc(O)cc1)C1(O)CCCCC1 (stereo not given) [Desvenlafaxine]
1
